Tested on: RPMI-8866
Experiment: cells
Format: functional, cell-based
Conditions: Homo sapiens
Description: SANGER: Inhibition of human RPMI-8866 cell growth in a cell viability assay.
// reported IC50 per item

Reference set (3 entries):
# molecule, measurement-target, data-value
records = [
    ("C/C(O)=C(\\C#N)C(=O)Nc1cc(Br)ccc1Br", "RPMI-8866", "> 16 µM"),
    ("Cc1n[nH]c2ccc(-c3cncc(OC[C@@H](N)Cc4c[nH]c5ccccc45)c3)cc12", "RPMI-8866", "> 1.02 µM"),
    ("NC(=O)c1ncn([C@@H]2O[C@H](COP(=O)(O)O)[C@@H](O)[C@H]2O)c1N", "RPMI-8866", "> 2000 µM"),
]

// next entry
Recorded IC50 for CC(O)(CS(=O)(=O)c1ccc(F)cc1)C(=O)Nc1ccc(C#N)c(C(F)(F)F)c1 (centres undefined) [BICALUTAMIDE] , please?
> 1.02 µM
